# experimental-target: Beta-secretase 1 (Homo sapiens) (UniProt P56817)
# Sequence (P56817 whole entry): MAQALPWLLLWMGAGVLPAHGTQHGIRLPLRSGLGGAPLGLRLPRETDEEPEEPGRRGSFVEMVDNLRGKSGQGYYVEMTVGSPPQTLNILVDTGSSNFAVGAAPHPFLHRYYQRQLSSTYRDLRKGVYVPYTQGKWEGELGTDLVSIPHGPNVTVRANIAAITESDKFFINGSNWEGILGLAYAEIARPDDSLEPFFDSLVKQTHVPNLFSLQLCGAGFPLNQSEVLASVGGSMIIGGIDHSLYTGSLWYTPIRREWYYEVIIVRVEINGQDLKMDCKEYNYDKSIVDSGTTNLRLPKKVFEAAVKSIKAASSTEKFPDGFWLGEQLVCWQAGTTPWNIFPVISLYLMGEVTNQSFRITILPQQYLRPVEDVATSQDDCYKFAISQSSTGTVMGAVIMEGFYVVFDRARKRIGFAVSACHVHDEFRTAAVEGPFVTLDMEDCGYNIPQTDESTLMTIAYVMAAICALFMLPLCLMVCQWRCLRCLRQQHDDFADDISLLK
# experiment: Inhibition of recombinant human C-terminal 10His-tagged BACE1 expressed in mouse NS0 cells at 5 uM using Mca-Ser-Glu-Val-Asn-Leu-Asp-Ala-Glu-Phe-Arg-Lys(Dnp)-Arg-Arg as substrate preincubated for 10 mins followed by substrate addition and measured by FRET assay
Active and inactive are the calls of the source. The calls are words filed in the database; no cut-off is given here.
recorded-metric: inhibition

Examples with their reported inhibition follow.
CC(C)[C@@H]1NC(=O)C[C@H](O)[C@H](Cc2ccc(F)c(F)c2)NC(=O)CCCCCCCCCCCNC1=O    Active
CC(C)[C@@H]1NC(=O)C[C@H](O)[C@H](Cc2cscn2)NC(=O)CCCCCCCCCCCNC1=O    Active
CC(C)[C@@H]1NC(=O)CC[C@H](Cc2ccccc2)NC(=O)CCCCCCCCCCCNC1=O    Active
C[C@@H]1NC(=O)C[C@H](O)[C@H](Cc2ccccc2)NC(=O)CCCCCCCCCCCNC1=O    Active
CC(C)[C@@H]1NC(=O)C[C@H](O)[C@H](Cc2ccccc2)NC(=O)CCCCCCCCCCNC1=O    Active
CC(C)[C@@H]1NC(=O)C[C@H](O)[C@H](Cc2ccc3ccccc3c2)NC(=O)CCCCCCCCCCCNC1=O    Active

Noted for CC(C)[C@@H]1NC(=O)C[C@H](O)[C@H](CSCc2ccccc2)NC(=O)CCCCCCCCCCCNC1=O : its inhibition reads Active

Lab note: measured inhibition of C[C@@H](O)[C@@H]1NC(=O)C[C@H](O)[C@H](Cc2ccccc2)NC(=O)CCCCCCCCCCCNC1=O was Active
